- System: TGFBR2 (Homo sapiens)
- Sequence (P37173 23-567): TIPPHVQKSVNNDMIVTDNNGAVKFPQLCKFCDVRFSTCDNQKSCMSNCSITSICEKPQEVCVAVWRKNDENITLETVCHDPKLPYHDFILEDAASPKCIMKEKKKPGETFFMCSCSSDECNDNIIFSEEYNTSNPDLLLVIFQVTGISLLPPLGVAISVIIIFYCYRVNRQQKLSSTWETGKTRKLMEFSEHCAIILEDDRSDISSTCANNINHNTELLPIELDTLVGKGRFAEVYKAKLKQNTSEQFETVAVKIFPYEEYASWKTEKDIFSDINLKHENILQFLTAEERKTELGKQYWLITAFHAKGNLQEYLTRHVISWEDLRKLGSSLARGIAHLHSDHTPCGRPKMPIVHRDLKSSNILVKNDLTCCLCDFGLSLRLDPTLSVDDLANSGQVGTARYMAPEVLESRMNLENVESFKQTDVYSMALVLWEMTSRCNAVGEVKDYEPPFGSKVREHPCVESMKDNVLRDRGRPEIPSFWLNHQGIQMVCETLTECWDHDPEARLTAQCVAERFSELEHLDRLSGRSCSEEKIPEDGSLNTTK
Here, each record is paired with measured IC50 data.

Here is how some compounds turned out for IC50.
Compound	Property name	Assay value
Nc1ncc(-c2ccc(O[C@H]3CCCN(C(=O)OCc4ccccc4)C3)cc2)nc1C(=O)Nc1cnccc1N1CCOCC1 [Compound 165]	IC50	100 to 1000 nM
CC(C)(C)OC(=O)N[C@H](CO)Cc1ccc(-c2cnc(N)c(C(=O)Nc3cnccc3N3CCOCC3)n2)cc1 [Compound 209]	IC50	< 50 nM
COC(=O)[C@@H](CCOc1ccc(-c2cnc(N)c(C(=O)Nc3cnccc3N3CCOCC3)n2)cc1)NC(=O)OCc1ccccc1 [Compound 270]	IC50	< 50 nM
NCCc1ccc(-c2cnc(N)c(C(=O)Nc3cnccc3N3CCOCC3)n2)c(F)c1 [Compound 55]	IC50	< 50 nM
Nc1ncc(-c2ccc(CCNC(=O)OCc3ccccc3)cc2)nc1C(=O)Nc1cnccc1-n1ccnn1 [Compound 120]	IC50	< 50 nM

Incoming: Please look up its IC50: Nc1ncc(-c2ccc(CCNC(=O)OCc3ccccc3)cc2)nc1C(=O)Nc1cnccc1-c1cccnc1 [Compound 128]
Outgoing: < 50 nM

Incoming: How about this compound: Nc1ncc(-c2ccc(S(=O)(=O)N3CCN(C(=O)OCc4ccccc4)CC3)cc2)nc1C(=O)Nc1cnccc1N1CCOCC1 [Compound 63]
Outgoing: 100 to 1000 nM

----------
As an illustration, consider measured IC50 for molecules on TGFBR2 (Homo sapiens).

Molecule	IC50
NCCCc1ccc(-c2cnc(N)c(C(=O)Nc3cc(F)ccc3N3CCOCC3)n2)cc1 [Compound 66]	100 to 1000 nM
CC(C)(C)OC(=O)N1CCc2cc(-c3cnc(N)c(C(=O)Nc4cnccc4N4CCOCC4)n3)ccc2C1CN (centres unmarked) [Compound 230]	< 50 nM
COc1ccc(OC)c(-c2cnc(N)c(C(=O)Nc3cnccc3N3CCOCC3)n2)c1 [Compound 159]	100 to 1000 nM

Incoming: Please look up its IC50: CC(C)(C)OC(=O)N[C@@H](CO)Cc1ccc(-c2cnc(N)c(C(=O)Nc3cnccc3N3CCOCC3)n2)cc1 [Compound 199]
Outgoing: < 50 nM

Incoming: How about this molecule: Nc1ncc(-c2ccc3c(c2)CCNC3CN2C(=O)c3ccccc3C2=O)nc1C(=O)Nc1cnccc1N1CCOCC1 (centres unmarked) [Compound 232]
Outgoing: < 50 nM

Incoming: How about this molecule: COc1ccc(-c2ccncc2NC(=O)c2nc(-c3ccc(CCNC(=O)OCc4ccccc4)cc3)cnc2N)cn1 [Compound 16]
Outgoing: < 50 nM

Incoming: How about this molecule: CC(C)(C)OC(=O)N1CCC[C@H]1C(=O)NCc1ccc(-c2cnc(N)c(C(=O)Nc3cnccc3N3CCOCC3)n2)cc1 [Compound 109]
Outgoing: < 50 nM

Incoming: How about this molecule: Nc1ncc(-c2ccc(CCNC(=O)OCc3ccccc3)cc2)nc1C(=O)Nc1cnccc1-c1ccncc1 [Compound 5.1]
Outgoing: < 50 nM

Incoming: How about this molecule: NCCc1ccc(-c2cnc(N)c(C(=O)Nc3cnccc3N3CCOCC3)n2)cn1 [Compound 125]
Outgoing: 100 to 1000 nM

Incoming: How about this molecule: Nc1ncc(-c2ccc3c(c2)CCC3N)nc1C(=O)Nc1cnccc1N1CCOCC1 (centres unmarked) [Compound 220]
Outgoing: < 50 nM

Incoming: How about this molecule: N#Cc1ccc(-c2ccncc2NC(=O)c2nc(-c3ccc(CCNC(=O)OCc4ccccc4)cc3)cnc2N)cc1 [Compound 15]
Outgoing: 100 to 1000 nM

Incoming: How about this molecule: NCCc1ccc(-c2cnc(N)c(C(=O)Nc3cncc(-c4cccc(N)c4)c3)n2)cc1 [Compound 149]
Outgoing: 50 to 100 nM

Incoming: How about this molecule: Nc1ncc(-c2ccccc2Cl)nc1C(=O)Nc1cnccc1N1CCOCC1 [Compound 151]
Outgoing: 50 to 100 nM

Incoming: How about this molecule: Nc1ncc(-c2ccc(CCNC(=O)OCc3ccccc3)cc2)nc1C(=O)Nc1cnccc1-c1ccc2c(c1)OCO2 [Compound 26]
Outgoing: < 50 nM

Where do the numbers come from? From patent US20220362396A1.
